Test system: TK-10 renal
Test: NCI tumour cell line growth inhibition, 48 h
MEASUREMENT LABEL: TGI (µM)
Field format: number, assumed µM, no unit text.

compound=N=C1C=CC(=C(c2ccc(N)cc2)c2ccc(N)cc2)C=C1 number=28.1
compound="CCCCCCCCCCCC(=O)N(CCCCCCCCC)CC(O)C(O)C(OC1OC(CO)C(O)C(O)C1O)C(O)CO (stereo not given)" number=29.8
compound=OCc1ccc2c(c1)CC1(Cc3ccccc3C1)C2 number=61.5

Now for a further compound.
compound CC1(C)CCC2=C(O1)c1ccccc1C(=Nc1ccc([N+](=O)[O-])cc1)C2=O , TGI observed: 32.6

====

Test system: HS 578T breast
Test: NCI tumour cell line growth inhibition, 48 h
Each item that follows carries a reported TGI.

Take a look at these entries with their results.
compound=COc1cccc(N2CC(O)=C(c3nc4ccccc4s3)C2=N)c1 subject_of_test="HS 578T breast" result="> 44.7 µM"
compound=CC(C)OC1=C(CC2(C)OCCO2)C(=O)C12OCCO2 subject_of_test="HS 578T breast" result="> 100 µM"
compound=CCN1CCN(c2ccc(NC(=O)Nc3nc4ccc(-c5ccccc5OC)cc4s3)cc2)CC1 subject_of_test="HS 578T breast" result="4.45 µM"
compound="Cc1ccc(C)n1-c1ccccc1C1C=Cn2c(=O)oc3c(OC(C)C)c(OC(C)C)c(O)c1c32 (stereo unspecified)" subject_of_test="HS 578T breast" result="> 100 µM"
compound=Cc1ccc2sc3c(NCCCN)nc4ccccc4c3c(=O)c2c1 subject_of_test="HS 578T breast" result="5.19 µM"

// below: TGI requested for another compound
Reported TGI for COc1ccc(/C(=N/O)c2ccccc2C2=Nc3ccccc3C(NCc3ccccc3)O2)cc1C (stereo unspecified) was > 100 µM

====

Test system: MOLT-4 leukemia
Assay: NCI tumour cell line growth inhibition, 48 h
MEASUREMENT LABEL: TGI

Examples with answers:
compound=Cc1cc(N(CCC#N)CCC#N)ccc1/C(N=Nc1ccc(C(=O)O)cc1)=N\NC(=O)c1ccccc1 result="> 100 µM"
compound="O=C(CC12C3C4C1C1C2C3C41CC(=O)NO)NO (configuration not stated)" result="> 100 µM"
compound="COc1cc2c(cc1OCC(=O)Nc1ccc(Cl)cc1C(=O)c1ccccc1Cl)N=CC1CCCN1C2=O (configuration not stated)" result="28.2 µM"
compound="CCC(O)CCCCCCCCCCCCCCC(=O)O (configuration not stated)" result="> 100 µM"

The value of TGI measured for the compound COc1nn(C)cc1Nc1nccc(-c2c[nH]c3c(NC(=O)[C@@H](C)N4CCN(C)CC4)cccc23)n1 turned out to be > 100 µM

The reported value for COc1cc2nc(-c3cccs3)nc(Nc3ccccc3C(=O)NN)c2cc1OC in terms of TGI is > 100 µM

COc1cc(OC)c(/C=C/C(=O)c2c(OC)cc(OC)cc2OC)c(OC)c1 has a reported TGI of > 100 µM

====

System: HL-60(TB) leukemia
Test: NCI tumour cell line growth inhibition, 48 h
MEASUREMENT LABEL: log10(TGI) (log10 of the value in µM)
Note the log scale: values are log10 of TGI expressed in µM.

compound="COCC(C#N)NC1CC(OC2CC(O)(C(=O)CO)Cc3c(O)c4c(c(O)c32)C(=O)c2c(OC)cccc2C4=O)OC(C)C1O (centres undefined)" measurement_label=log10(TGI) number=-0.36

GET /value?item= CC(=O)/C=C(/C)[O-].CC(=O)/C=C(/C)[O-].CC(=O)[CH-]C(C)=O.CC(=O)[CH-]C(C)=O.[Zr+4] &field=log10(TGI) returns 1.85

Field log10(TGI) (entry NC1(c2cc3ccccc3s2)CCCCCC1 ) reads 1.50

Data point: O=C1/C=C/[C@@H](O)[C@@H]2C[C@@H](O)C[C@H]2/C=C/CCC[C@H](CCO)O1 ; log10(TGI) = 0.06

The value of log10(TGI) measured for the compound Cc1cc(I)cc(CN(C)CCCN2CCC(C)CC2)c1O turned out to be 1.50

====

Tested on: MOLT-4 leukemia
Assay: NCI tumour cell line growth inhibition, 48 h; in the data active = GI50 below about 0.43 µM; inactive = the rest
// classify into Yes (active), No (inactive)

Examples with answers:
compound=COc1ccc(C(=O)/C=C/c2ccc(OCc3cccc(C(F)(F)F)c3)c(OC)c2)cc1OC classification=No
compound=O=C(Nc1nc2c(C(F)(F)F)cccc2s1)c1cc(Cl)ccc1O classification=Yes
compound="CC1Cc2c(Cl)ncnc2N(C)c2ccccc21 (stereo not given)" classification=No
compound=COc1cccc(N2CC(O)=C(c3nc4ccccc4s3)C2=N)c1 classification=Yes
compound=CN(C(=O)C(C)(C)C)c1ccccc1I(=O)=O classification=No
compound=Nc1ccc(C#Cc2ccccc2C#CCCCCO)cc1 classification=No
compound="CN1C(=O)N(C)C2C1NC(=S)N2/N=C/C=C/c1ccccc1[N+](=O)[O-] (stereo not given)" classification=No
compound=C[C@@H]1CC[C@@H]2[C@@H]1[C@H](OC(=O)/C=C/C1CCCCC1)[C@]1(C3CCCCC3)C[C@@H](OC(=O)CO)[C@@]2(C)O1 classification=No
compound="CCCCCCCCN(CCCCCCCC)CC(O)c1cc(-c2ccccc2)nc2ccc(OC)cc12 (stereo not given)" classification=No

Turning to the following compound.
Test call, this compound: Cc1cc(I)cc(CN(C)CCCN2CCC(C)CC2)c1O
No

====

Tested on: A498 renal
Experiment: NCI tumour cell line growth inhibition, 48 h; in the data active means GI50 below about 0.43 µM; inactive means the rest
Use one of these outcomes when replying: YES = active, NO = inactive

molecule="CC(C)(C)NCC(O)c1ccccc1Cl (configuration not stated)" subject_of_test="A498 renal" classification=NO
molecule=CCOC(=O)C1=C(Nc2ccc(OC)cc2)C(N)=NC1=N subject_of_test="A498 renal" classification=NO
molecule=COc1ccc(C(=O)/C=C/c2ccc(OCc3cccc(C(F)(F)F)c3)c(OC)c2)cc1OC subject_of_test="A498 renal" classification=NO
molecule=COc1nn(C)cc1Nc1nccc(-c2c[nH]c3c(NC(=O)[C@@H](C)N4CCN(C)CC4)cccc23)n1 subject_of_test="A498 renal" classification=NO
molecule=Cc1nnc(N/N=C/c2ccc([N+](=O)[O-])o2)[nH]c1=O subject_of_test="A498 renal" classification=NO
molecule=COC(=O)Nc1nc2ccc(C(=O)c3cccc(I)c3)cc2[nH]1 subject_of_test="A498 renal" classification=YES

Moving on to another molecule below.
Which outcome did this test record for the molecule O=C1/C=C/[C@@H](O)[C@@H]2C[C@@H](O)C[C@H]2/C=C/CCC[C@H](CCO)O1 ?
YES

====

Measured TGI of individual entries
Tested on: SF-268 CNS
Experiment: NCI tumour cell line growth inhibition, 48 h

Take a look at these entries with their results.
compound=N=c1ncn(C/C=C/c2ccccc2)c2nc[nH]c12 result="> 100 µM"
compound=COc1ccc(N=NC2=C(O)CCC2=O)cc1 result="> 100 µM"
compound="CN1C(=O)N(C)C2C1NC(=S)N2/N=C/C=C/c1ccccc1[N+](=O)[O-] (centres undefined)" result="> 100 µM"
compound="Cc1ccc(C)n1-c1ccccc1C1C=Cn2c(=O)oc3c(OC(C)C)c(OC(C)C)c(O)c1c32 (centres undefined)" result="> 100 µM"
compound=O=c1oc2ccccc2c(O)c1C(c1ccc(OCc2ccccc2)cc1)c1c(O)c2ccccc2oc1=O result="> 100 µM"
compound=COC(=O)[C@]1(C)CCC[C@@]2(C)C3=C(CC[C@H]12)C[C@@H](CC(OC(C)=O)OC(C)=O)[C@@H](C)C3 result="16.9 µM"
compound=C[C@]12CCC(=O)C=C1C[C@@H](O)[C@@H]1[C@@H]2CC[C@@]2(C)[C@H]1CC[C@]2(C)O result="> 100 µM"
compound=O=C1C(c2ccccc2)=C(c2ccccc2)C1(Cl)Cl result="12.7 µM"

Okay, now this compound:
COc1cc(/C=C2\[C@@H]3NC(Cc4c(OC)c(C)c(OC)c(OC)c43)C(=O)N2Cc2ccccc2)c(OC)c(C)c1OC on SF-268 CNS gives TGI = > 100 µM

====

Test system: MCF7 breast
Assay: NCI tumour cell line growth inhibition, 48 h
// TGI lookup, one value per entry

Reference set, count: 6
molecule=COc1cc2nc(-c3cccs3)nc(N3CCN(c4ccccc4)CC3)c2cc1OC result="> 100 µM"
molecule=CC1(C)CC(=O)c2c(N)n[nH]c2C1 result="> 100 µM"
molecule=CC1=CC(C)=N/C(=N/S(=O)(=O)c2cc(C)c(Cl)cc2SCc2ccccc2)NN1 result="> 100 µM"
molecule=Nc1nc2cc(Cl)ccc2n1N result="> 100 µM"
molecule=NC(=Nc1ccccc1)N/N=C/c1c[nH]c2ccccc12 result="15 µM"
molecule=C=CCc1c(O)c(C(=O)/C=C/c2ccc(Cl)cc2)c(OC)c2ccoc12 result="11.4 µM"

# TGI (molecule: O=C1/C=C/[C@@H](O)[C@@H]2C[C@@H](O)C[C@H]2/C=C/CCC[C@H](CCO)O1 ) is 0.558 µM

GET /value?item= COC1C(O)C(C)OC(O[C@H]2CC[C@@]3(C)C(CC[C@@H]4[C@@H]3CC[C@]3(C)[C@@H](C(C)OC5OC(CO)C(O)C(O)C5O)CC[C@]43O)C2)C1O (some centres undefined) &field=TGI returns > 25 µM

What the record says about Cc1cn(C2CC(O)C(Cn3nncc3Cn3nc(Br)c(=O)[nH]c3=O)O2)c(=O)[nH]c1=O (centres undefined) : TGI is > 100 µM

Per the records, this molecule ( CC1(C)CCCCCC(O)C(O)CCC(C)(C)C1=O (centres undefined) ) has TGI equal to > 100 µM

Entry N#Cc1sc2c(c1OC(=O)c1ccco1)c(=O)n(-c1ccccc1)c(=S)n2-c1ccccc1 , TGI reported as > 100 µM

Entry CCOC(=O)c1ccc2nc3n(c2c1)C(c1c(F)cccc1F)SC3 (centres undefined) — recorded TGI = > 100 µM

Value of TGI reported for the molecule CCCCCCCCN(CCCCCCCC)CC(O)c1cc(-c2ccccc2)nc2ccc(OC)cc12 (centres undefined) is > 100 µM

Input O=c1oc2ccccc2c(O)c1C(c1ccc(OCc2ccccc2)cc1)c1c(O)c2ccccc2oc1=O . Output TGI: > 100 µM

TGI in this record for O=C(CCCCCNC(=O)c1ccc(Cl)cc1)NO : > 100 µM
